Data credit: ChEMBL document CHEMBL3885861

Species: Rattus norvegicus
test description: Open TG-GATES - Regimen: Daily Repeat
Type: toxicity, organism-based, Sprague-Dawley
Design: regimen Daily Repeat, gender Male, age 6 weeks
measurement setup: in vivo, po, 0 mg/kg, 72 h, tissue Liver, route gavage, dose level Control, time 3 day
The entries below are paired with their reported LIVER.
Output spec: scalar in g, unitless text.

molecule	uom	result
O=C(CCCN1CCC(O)(c2ccc(Cl)cc2)CC1)c1ccc(F)cc1	g	11.1
CN1C(=O)CN=C(c2ccccc2)c2cc(Cl)ccc21	g	12.5
CN(C)CCN(Cc1cccs1)c1ccccn1	g	10.2
COc1ccc2[nH]c([S+]([O-])Cc3ncc(C)c(OC)c3C)nc2c1 (stereo unspecified)	g	11.7
NNC(=O)c1ccncc1	g	11.3
NC(N)=Nc1nc(CSCCC(N)=NS(N)(=O)=O)cs1	g	10.4

Endpoint output: LIVER of CCOc1ccc(NC(=O)CC(C)O)cc1 (stereo unspecified) . Value?
11.9
